tested on: MDA-MB-231; test: Cytotoxicity against human MDA-MB-231 cells at 10 uM by SRB assay; assay type: functional
quantity kind: growth, % of control at 10 µM (%)
The reply should contain only the number, in %.

{"mol": "CC(C)(C)c1ccc(Cn2cc(-c3cn([C@H]4C[C@H](O)[C@@H](CO)O4)c(=O)[nH]c3=O)nn2)cc1", "target entity": "MDA-MB-231", "unit": "%", "recorded result": 106}
{"mol": "O=c1[nH]c(=O)n([C@H]2C[C@H](O)[C@@H](CO)O2)cc1-c1cn(Cc2ccccc2)nn1", "target entity": "MDA-MB-231", "unit": "%", "recorded result": 103}

Complete the entry with growth, % of control at 10 µM for CC(=O)OC[C@H]1O[C@@H](n2cc(-c3cc(-c4ccc(C(C)(C)C)cc4)no3)c(=O)[nH]c2=O)C[C@@H]1OC(C)=O
69.3

Complete the entry with growth, % of control at 10 µM for CCCCCc1cc(-c2cn([C@H]3C[C@H](OC(C)=O)[C@@H](COC(C)=O)O3)c(=O)[nH]c2=O)on1
91.5

Complete the entry with growth, % of control at 10 µM for CC(=O)OC[C@H]1O[C@@H](n2cc(-c3cn(Cc4ccc(C(C)C)cc4)nn3)c(=O)[nH]c2=O)C[C@@H]1OC(C)=O
98.1

Complete the entry with growth, % of control at 10 µM for CCCc1cc(-c2cn([C@H]3C[C@H](OC(C)=O)[C@@H](COC(C)=O)O3)c(=O)[nH]c2=O)on1
102

Complete the entry with growth, % of control at 10 µM for CCc1ccc(-c2cc(-c3cn([C@H]4C[C@H](OC(C)=O)[C@@H](COC(C)=O)O4)c(=O)[nH]c3=O)on2)cc1
97.4

Complete the entry with growth, % of control at 10 µM for CC(=O)OC[C@H]1O[C@@H](n2cc(-c3cn(Cc4ccccc4)nn3)c(=O)[nH]c2=O)C[C@@H]1OC(C)=O
102

---

tested on: NCI-H23; assay: Cytotoxicity against human NCI-H23 cells at 10 uM by SRB assay; format: functional
quantity kind: growth, % of control at 10 µM (%)
The reply should contain only the number, in %.

Examples with answers:
{"mol": "CC(=O)OC[C@H]1O[C@@H](n2cc(-c3cc(-c4ccc(C(C)(C)C)cc4)no3)c(=O)[nH]c2=O)C[C@@H]1OC(C)=O", "growth, % of control at 10 µM (%)": 112}
{"mol": "CC(C)(C)c1ccc(Cn2cc(-c3cn([C@H]4C[C@H](O)[C@@H](CO)O4)c(=O)[nH]c3=O)nn2)cc1", "growth, % of control at 10 µM (%)": 95}
{"mol": "CC(=O)OC[C@H]1O[C@@H](n2cc(-c3cc(C)no3)c(=O)[nH]c2=O)C[C@@H]1OC(C)=O", "growth, % of control at 10 µM (%)": 101}
{"mol": "CC(=O)OC[C@H]1O[C@@H](n2cc(-c3cn(Cc4ccc(C(C)(C)C)cc4)nn3)c(=O)[nH]c2=O)C[C@@H]1OC(C)=O", "growth, % of control at 10 µM (%)": 106}
{"mol": "CCc1ccc(-c2cc(-c3cn([C@H]4C[C@H](OC(C)=O)[C@@H](COC(C)=O)O4)c(=O)[nH]c3=O)on2)cc1", "growth, % of control at 10 µM (%)": 92.7}
{"mol": "O=c1[nH]c(=O)n([C@H]2C[C@H](O)[C@@H](CO)O2)cc1-c1cn(Cc2ccccc2)nn1", "growth, % of control at 10 µM (%)": 97.5}

Next, consider the following compound.
Complete the entry with growth, % of control at 10 µM for CC(=O)OC[C@H]1O[C@@H](n2cc(-c3cc(-c4ccccc4)no3)c(=O)[nH]c2=O)C[C@@H]1OC(C)=O
91.4

---

test system: HCT-15; assay: Cytotoxicity against human HCT15 cells at 10 uM by SRB assay; format: functional
quantity kind: growth, % of control at 10 µM (%)
The reply should contain only the number, in %.

{"mol": "CCc1ccc(-c2cc(-c3cn([C@H]4C[C@H](OC(C)=O)[C@@H](COC(C)=O)O4)c(=O)[nH]c3=O)on2)cc1", "target entity": "HCT-15", "quantity kind": "growth, % of control at 10 µM", "unit": "%", "recorded result": 92.2}
{"mol": "O=c1[nH]c(=O)n([C@H]2C[C@H](O)[C@@H](CO)O2)cc1-c1cn(Cc2ccccc2)nn1", "target entity": "HCT-15", "quantity kind": "growth, % of control at 10 µM", "unit": "%", "recorded result": 88.3}
{"mol": "CCCCc1ccc(-c2cc(-c3cn([C@H]4C[C@H](OC(C)=O)[C@@H](COC(C)=O)O4)c(=O)[nH]c3=O)on2)cc1", "target entity": "HCT-15", "quantity kind": "growth, % of control at 10 µM", "unit": "%", "recorded result": 71.4}
{"mol": "CC(=O)OC[C@H]1O[C@@H](n2cc(-c3cn(Cc4ccc(C(C)C)cc4)nn3)c(=O)[nH]c2=O)C[C@@H]1OC(C)=O", "target entity": "HCT-15", "quantity kind": "growth, % of control at 10 µM", "unit": "%", "recorded result": 96.5}
{"mol": "CC(C)(C)c1ccc(-c2cc(-c3cn([C@H]4C[C@H](O)[C@@H](CO)O4)c(=O)[nH]c3=O)on2)cc1", "target entity": "HCT-15", "quantity kind": "growth, % of control at 10 µM", "unit": "%", "recorded result": 79.8}

Complete the entry with growth, % of control at 10 µM for CC(=O)OC[C@H]1O[C@@H](n2cc(-c3cc(C)no3)c(=O)[nH]c2=O)C[C@@H]1OC(C)=O
102

Complete the entry with growth, % of control at 10 µM for CCc1ccc(Cn2cc(-c3cn([C@H]4C[C@H](OC(C)=O)[C@@H](COC(C)=O)O4)c(=O)[nH]c3=O)nn2)cc1
88

Complete the entry with growth, % of control at 10 µM for CC(=O)OC[C@H]1O[C@@H](n2cc(-c3cc(-c4ccc(C(C)(C)C)cc4)no3)c(=O)[nH]c2=O)C[C@@H]1OC(C)=O
53.8

Complete the entry with growth, % of control at 10 µM for CCCc1cc(-c2cn([C@H]3C[C@H](OC(C)=O)[C@@H](COC(C)=O)O3)c(=O)[nH]c2=O)on1
98.8

Complete the entry with growth, % of control at 10 µM for CC(=O)OC[C@H]1O[C@@H](n2cc(-c3cc(-c4ccc(C(C)C)cc4)no3)c(=O)[nH]c2=O)C[C@@H]1OC(C)=O
80.9

Complete the entry with growth, % of control at 10 µM for CC(=O)OC[C@H]1O[C@@H](n2cc(-c3cn(Cc4ccccc4)nn3)c(=O)[nH]c2=O)C[C@@H]1OC(C)=O
92.3

Complete the entry with growth, % of control at 10 µM for CC(=O)OC[C@H]1O[C@@H](n2cc(-c3cc(-c4ccccc4)no3)c(=O)[nH]c2=O)C[C@@H]1OC(C)=O
92.2

Complete the entry with growth, % of control at 10 µM for CCCCCCCCc1cc(-c2cn([C@H]3C[C@H](O)[C@@H](CO)O3)c(=O)[nH]c2=O)on1
88.2

Complete the entry with growth, % of control at 10 µM for CC(C)(C)c1ccc(Cn2cc(-c3cn([C@H]4C[C@H](O)[C@@H](CO)O4)c(=O)[nH]c3=O)nn2)cc1
96.9

Complete the entry with growth, % of control at 10 µM for CC(=O)OC[C@H]1O[C@@H](n2cc(-c3cn(Cc4ccc(C(C)(C)C)cc4)nn3)c(=O)[nH]c2=O)C[C@@H]1OC(C)=O
94.2

Complete the entry with growth, % of control at 10 µM for CCCCCc1cc(-c2cn([C@H]3C[C@H](OC(C)=O)[C@@H](COC(C)=O)O3)c(=O)[nH]c2=O)on1
98.7

---

tested on: NCI-H23; experiment: Cytotoxicity against human NCI-H23 cells at 10 uM by SRB assay; format: functional
quantity kind: growth, % of control at 10 µM (%)
The reply should contain only the number, in %.

Examples with answers:
{"mol": "CC(C)(C)c1ccc(-c2cc(-c3cn([C@H]4C[C@H](O)[C@@H](CO)O4)c(=O)[nH]c3=O)on2)cc1", "unit": "%", "recorded result": 98.9}
{"mol": "CCCCCCCCc1cc(-c2cn([C@H]3C[C@H](O)[C@@H](CO)O3)c(=O)[nH]c2=O)on1", "unit": "%", "recorded result": 120}
{"mol": "CC(=O)OC[C@H]1O[C@@H](n2cc(-c3cn(Cc4ccc(C(C)C)cc4)nn3)c(=O)[nH]c2=O)C[C@@H]1OC(C)=O", "unit": "%", "recorded result": 86.7}

Please report the measured growth, % of control at 10 µM for CC(=O)OC[C@H]1O[C@@H](n2cc(-c3cn(Cc4ccccc4)nn3)c(=O)[nH]c2=O)C[C@@H]1OC(C)=O tested on NCI-H23.
98.2

Please report the measured growth, % of control at 10 µM for CCc1ccc(Cn2cc(-c3cn([C@H]4C[C@H](OC(C)=O)[C@@H](COC(C)=O)O4)c(=O)[nH]c3=O)nn2)cc1 tested on NCI-H23.
77.2

Please report the measured growth, % of control at 10 µM for CCCc1cc(-c2cn([C@H]3C[C@H](OC(C)=O)[C@@H](COC(C)=O)O3)c(=O)[nH]c2=O)on1 tested on NCI-H23.
96.9

Please report the measured growth, % of control at 10 µM for CCCCc1ccc(-c2cc(-c3cn([C@H]4C[C@H](OC(C)=O)[C@@H](COC(C)=O)O4)c(=O)[nH]c3=O)on2)cc1 tested on NCI-H23.
97.4

Please report the measured growth, % of control at 10 µM for CC(=O)OC[C@H]1O[C@@H](n2cc(-c3cc(-c4ccc(C(C)C)cc4)no3)c(=O)[nH]c2=O)C[C@@H]1OC(C)=O tested on NCI-H23.
108

Please report the measured growth, % of control at 10 µM for CCCCCc1cc(-c2cn([C@H]3C[C@H](OC(C)=O)[C@@H](COC(C)=O)O3)c(=O)[nH]c2=O)on1 tested on NCI-H23.
88.9
